target: β2-AR (Homo sapiens, UniProt P07550); conditions: marker [3H]-(R,R′)-2
Sequence (P07550 whole entry): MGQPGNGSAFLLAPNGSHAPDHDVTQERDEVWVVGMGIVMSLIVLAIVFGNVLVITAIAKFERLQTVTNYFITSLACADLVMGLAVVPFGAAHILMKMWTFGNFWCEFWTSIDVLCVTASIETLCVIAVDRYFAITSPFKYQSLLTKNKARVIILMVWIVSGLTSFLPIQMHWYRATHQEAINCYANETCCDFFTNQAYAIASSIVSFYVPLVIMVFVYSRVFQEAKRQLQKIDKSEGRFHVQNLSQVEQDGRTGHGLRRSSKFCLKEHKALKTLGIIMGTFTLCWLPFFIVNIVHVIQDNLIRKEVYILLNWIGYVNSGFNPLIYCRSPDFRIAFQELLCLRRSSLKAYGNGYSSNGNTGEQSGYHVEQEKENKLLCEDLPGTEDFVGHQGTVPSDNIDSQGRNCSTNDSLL
# HS (Hill coefficient), displacement of [3H]-(R,R′)-2 values compiled below
Answer with a number only.

Past entries and their recorded results:
>>> readout_number("CCC[C@H](Cc1ccc(OC)cc1)NC[C@H](O)c1cc(O)cc(O)c1 [(R,R′)-66]")
1.38
>>> readout_number("COc1ccc(CCNC[C@H](O)c2cc(O)cc(O)c2)cc1 [(R)-67]")
1.59
>>> readout_number("CC[C@H](Cc1ccc(OC)cc1)NC[C@H](O)c1cc(O)cc(O)c1 [(R,R′)-64]")
0.82
>>> readout_number("COc1ccc(C[C@@H](C)NC[C@H](O)c2cc(O)cc(O)c2)cc1 [(R,R′)-2, (R,R′)-4′-methoxyfenoterol]")
0.80

Which HS (Hill coefficient), displacement of [3H]-(R,R′)-2 is reported for this molecule? COc1ccc(CCNC[C@@H](O)c2cc(O)cc(O)c2)cc1 [(S)-67]
0.89

Which HS (Hill coefficient), displacement of [3H]-(R,R′)-2 is reported for this molecule? COc1ccc(C[C@H](NC[C@H](O)c2cc(O)cc(O)c2)C(C)C)cc1 [(R,R′)-65]
1.41

Which HS (Hill coefficient), displacement of [3H]-(R,R′)-2 is reported for this molecule? COc1ccc(C[C@@H](NC[C@H](O)c2cc(O)cc(O)c2)C(C)C)cc1 [(R,S′)-65]
1.45

Which HS (Hill coefficient), displacement of [3H]-(R,R′)-2 is reported for this molecule? COc1ccc(C[C@H](C)NC[C@H](O)c2cc(O)cc(O)c2)c2ccccc12 [(R,S′)-54]
0.90

Which HS (Hill coefficient), displacement of [3H]-(R,R′)-2 is reported for this molecule? CC[C@@H](Cc1ccc(OC)cc1)NC[C@H](O)c1cc(O)cc(O)c1 [(R,S′)-64]
0.86

Which HS (Hill coefficient), displacement of [3H]-(R,R′)-2 is reported for this molecule? COc1ccc(C[C@@H](C)NC[C@H](O)c2cc(O)cc(O)c2)c2ccccc12 [(R,R′)-54]
0.86
